Endpoint: ΔTm. System: Serine/threonine-protein kinase 17A (Homo sapiens) (UniProt Q9UEE5). Items follow.
Sequence (Q9UEE5 whole entry): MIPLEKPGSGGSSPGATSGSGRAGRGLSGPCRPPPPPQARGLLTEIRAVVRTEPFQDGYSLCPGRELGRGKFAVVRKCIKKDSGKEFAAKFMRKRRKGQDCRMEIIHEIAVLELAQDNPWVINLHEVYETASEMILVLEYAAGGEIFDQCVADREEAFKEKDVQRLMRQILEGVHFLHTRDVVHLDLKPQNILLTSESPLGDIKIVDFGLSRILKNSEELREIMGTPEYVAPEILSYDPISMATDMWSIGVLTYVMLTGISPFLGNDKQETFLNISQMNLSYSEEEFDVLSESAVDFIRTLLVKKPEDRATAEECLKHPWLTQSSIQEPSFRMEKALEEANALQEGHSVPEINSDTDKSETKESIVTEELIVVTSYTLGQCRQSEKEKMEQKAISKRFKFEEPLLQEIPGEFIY
Use °C as the unit, but write only the number.

Q) State its ΔTm: "Nc1cccc(-c2cc3c(Oc4cccc(O)c4)ncnc3[nH]2)c1"
A) 0.9

Q) State its ΔTm: "O=C1Nc2ccccc2/C1=C/c1cnc[nH]1"
A) 9

Q) State its ΔTm: "c1ccc(-c2n[nH]c3c2oc2ccccc23)cc1"
A) 1

Q) State its ΔTm: Cn1cnc2c(NCc3ccccc3)nc(NCCO)nc21 [OLOMOUCINE]
A) -0.1

Q) State its ΔTm: Brc1c(Br)c(Br)c2[nH]nnc2c1Br [TETRABROMOBENZOTRIAZOLE]
A) 4.1

Q) State its ΔTm: "NCCNS(=O)(=O)c1cccc2c(Cl)cccc12"
A) 1

====

- system-under-test: Insulin-like growth factor 1 receptor (Homo sapiens, UniProt P08069)
- Sequence (P08069 31-736 limits assumed): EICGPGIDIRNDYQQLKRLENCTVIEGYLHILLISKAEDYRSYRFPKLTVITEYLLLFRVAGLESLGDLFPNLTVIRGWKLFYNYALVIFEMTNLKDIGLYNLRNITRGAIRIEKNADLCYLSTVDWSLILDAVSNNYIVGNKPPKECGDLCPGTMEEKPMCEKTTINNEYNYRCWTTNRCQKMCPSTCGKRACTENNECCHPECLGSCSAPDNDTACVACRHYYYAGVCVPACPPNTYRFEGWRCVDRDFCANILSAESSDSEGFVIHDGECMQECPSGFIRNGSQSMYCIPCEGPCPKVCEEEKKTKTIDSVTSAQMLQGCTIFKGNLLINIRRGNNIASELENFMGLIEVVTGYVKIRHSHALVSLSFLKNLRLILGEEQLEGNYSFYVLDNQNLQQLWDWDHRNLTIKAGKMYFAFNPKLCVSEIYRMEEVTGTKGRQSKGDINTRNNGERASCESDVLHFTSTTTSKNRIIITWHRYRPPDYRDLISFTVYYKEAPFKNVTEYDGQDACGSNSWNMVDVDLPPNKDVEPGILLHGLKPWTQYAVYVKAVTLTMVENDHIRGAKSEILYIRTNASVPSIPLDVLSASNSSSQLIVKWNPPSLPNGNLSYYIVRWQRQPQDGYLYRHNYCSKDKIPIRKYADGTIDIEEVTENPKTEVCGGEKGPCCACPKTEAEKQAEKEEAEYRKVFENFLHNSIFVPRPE
- Sequence (P08069 741-1367 limits assumed): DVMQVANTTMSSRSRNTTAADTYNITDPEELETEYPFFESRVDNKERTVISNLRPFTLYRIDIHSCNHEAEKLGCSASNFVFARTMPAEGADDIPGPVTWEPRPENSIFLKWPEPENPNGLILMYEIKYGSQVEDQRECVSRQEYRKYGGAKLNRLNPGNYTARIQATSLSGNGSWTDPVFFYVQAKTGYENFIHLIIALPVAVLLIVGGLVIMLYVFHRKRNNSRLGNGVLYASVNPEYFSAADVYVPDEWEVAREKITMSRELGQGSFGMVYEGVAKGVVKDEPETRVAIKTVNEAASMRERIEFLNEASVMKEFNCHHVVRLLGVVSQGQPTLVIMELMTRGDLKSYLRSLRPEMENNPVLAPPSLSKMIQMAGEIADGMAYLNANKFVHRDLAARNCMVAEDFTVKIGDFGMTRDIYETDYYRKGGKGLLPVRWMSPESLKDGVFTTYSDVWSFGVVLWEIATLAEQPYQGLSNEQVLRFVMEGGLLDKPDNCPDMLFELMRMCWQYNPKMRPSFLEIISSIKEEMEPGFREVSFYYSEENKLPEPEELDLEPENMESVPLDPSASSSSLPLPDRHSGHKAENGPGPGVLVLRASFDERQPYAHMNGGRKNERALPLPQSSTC
- test-protocol: Inhibition of IGF1R
measurement-name: IC50 (µM)
Use µM as the unit, but write only the number.

Q) State its IC50: "O=C(Nc1cccc(Nc2nccc(Nc3cccc(C(F)(F)F)c3)n2)c1)C1CC1"
A) 0.591

====

- system-under-test: UniProtKB Q09013
- Sequence (whole entry): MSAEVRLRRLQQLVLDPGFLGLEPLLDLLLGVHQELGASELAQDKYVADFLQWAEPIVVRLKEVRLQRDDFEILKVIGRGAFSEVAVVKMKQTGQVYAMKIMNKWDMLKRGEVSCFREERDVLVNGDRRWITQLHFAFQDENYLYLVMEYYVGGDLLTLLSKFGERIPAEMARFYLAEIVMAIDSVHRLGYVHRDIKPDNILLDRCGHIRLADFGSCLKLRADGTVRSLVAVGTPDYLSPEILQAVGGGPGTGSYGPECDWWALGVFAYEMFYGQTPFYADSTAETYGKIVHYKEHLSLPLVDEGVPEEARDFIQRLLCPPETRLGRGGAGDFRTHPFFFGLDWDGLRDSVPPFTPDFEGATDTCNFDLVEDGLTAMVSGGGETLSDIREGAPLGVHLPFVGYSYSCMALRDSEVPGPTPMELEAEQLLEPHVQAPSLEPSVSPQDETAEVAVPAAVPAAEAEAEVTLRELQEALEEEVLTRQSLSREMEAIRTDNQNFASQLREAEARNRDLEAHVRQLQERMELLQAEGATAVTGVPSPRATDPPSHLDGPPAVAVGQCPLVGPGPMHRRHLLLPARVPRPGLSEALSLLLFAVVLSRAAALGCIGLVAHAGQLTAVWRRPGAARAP
Given measured ΔTm, output yes (1) if it is greater than or equal to 0.3 °C and no (0) if not.

Q) Please check the record COc1cc(O)c2c(c1)oc(=O)c1c3cc(O)c(O)cc3oc21 [WEDELOLACTONE] and state if its ΔTm is at or above 0.3 °C.
A) yes (1)

Q) Please check the record "O=C(Nc1cccc(Nc2cc(Nc3cccc(C(F)(F)F)c3)ncn2)c1)C1CC1" and state if its ΔTm is at or above 0.3 °C.
A) yes (1)

Q) Please check the record "O=C1C=C2C(=Nc3c2c2c(c4c3=NC3=C4CCC=C3)C=NC=2)CC1" and state if its ΔTm is at or above 0.3 °C.
A) yes (1)

Q) Please check the record "CN(c1cccnc1)c1cc2c(Nc3ccc(F)c(Cl)c3)c(C#N)cnc2cn1" and state if its ΔTm is at or above 0.3 °C.
A) yes (1)

Q) Please check the record "Nc1n[nH]c2nnc(-c3c(-c4ccccc4)nn4ccccc34)cc12" and state if its ΔTm is at or above 0.3 °C.
A) yes (1)

Q) Please check the record COc1cc2ncnc(Nc3ccc(NC(=O)c4ccccc4)cc3)c2cc1OC [ANILINOQUINAZOLINE1] and state if its ΔTm is at or above 0.3 °C.
A) yes (1)

Q) Please check the record "O=Nc1c(-c2c(O)[nH]c3ccccc23)[nH]c2ccccc12" and state if its ΔTm is at or above 0.3 °C.
A) no (0)

Q) Please check the record "O=c1cc(N2CCOCC2)oc2c(-c3ccccc3)cccc12" and state if its ΔTm is at or above 0.3 °C.
A) yes (1)

Q) Please check the record CCCNC(=O)Nc1ccc(Oc2ncnc3cc(OC)c(OC)cc23)cc1Cl [KRN-633] and state if its ΔTm is at or above 0.3 °C.
A) yes (1)

Q) Please check the record Cn1cnc2c(NCc3ccccc3)nc(NCCO)nc21 [OLOMOUCINE] and state if its ΔTm is at or above 0.3 °C.
A) no (0)

Q) Please check the record CN(C)c1ncnc2nc[nH]c12 [DIMETHYLADENINE] and state if its ΔTm is at or above 0.3 °C.
A) yes (1)

Q) Please check the record O=C1Cc2c([nH]c3ccc(Br)cc23)-c2ccccc2N1 [KENPAULLONE] and state if its ΔTm is at or above 0.3 °C.
A) yes (1)

Q) Please check the record "O=c1c(-c2ccc(O)cc2)coc2cc(O)cc(O)c12" and state if its ΔTm is at or above 0.3 °C.
A) yes (1)

Q) Please check the record "O=c1cc(-c2ccc(O)cc2)oc2cc(O)cc(O)c12" and state if its ΔTm is at or above 0.3 °C.
A) yes (1)

Q) Please check the record Cc1c2ccncc2c(C)c2c1[nH]c1ccccc12 [ELLIPTECINE] and state if its ΔTm is at or above 0.3 °C.
A) yes (1)

Q) Please check the record "Cc1ccc(NC2=CC(=O)c3sc(C)nc3C2=O)cc1" and state if its ΔTm is at or above 0.3 °C.
A) no (0)

Q) Please check the record O=C(Nc1cccc(Nc2nccc(Nc3cccc(C(F)(F)F)c3)n2)c1)C1CC1 [ANILINOPYRIMIDINE1] and state if its ΔTm is at or above 0.3 °C.
A) yes (1)

Q) Please check the record "N#C/C(=C\c1ccc(O)c(O)c1)C(=O)Nc1ccccc1" and state if its ΔTm is at or above 0.3 °C.
A) no (0)

Q) Please check the record "Ic1cccc(CSc2nnc(-c3ccncc3)o2)c1" and state if its ΔTm is at or above 0.3 °C.
A) no (0)

Q) Please check the record C[S+]([O-])c1ccc(-c2nc(-c3ccc(F)cc3)c(-c3ccncc3)[nH]2)cc1 (configuration not stated) [SB-203580] and state if its ΔTm is at or above 0.3 °C.
A) no (0)

Q) Please check the record "O=C1Nc2ccccc2/C1=C/c1cnc[nH]1" and state if its ΔTm is at or above 0.3 °C.
A) yes (1)

Q) Please check the record "O=c1cc(N2CCOCC2)oc2c1ccc1ccccc12" and state if its ΔTm is at or above 0.3 °C.
A) no (0)

Q) Please check the record "COc1cc(OC)c(/C=C2\C(=O)Nc3ccccc32)c(OC)c1" and state if its ΔTm is at or above 0.3 °C.
A) no (0)

Q) Please check the record "COC1=C2C[C@@H](C)C[C@H](OC)[C@H](O)[C@@H](C)/C=C(\C)[C@H](OC(N)=O)[C@@H](OC)/C=C\C=C(/C)C(=O)NC(=CC1=O)C2=O" and state if its ΔTm is at or above 0.3 °C.
A) no (0)

Q) Please check the record "Nc1ncnc2c1c(I)cn2[C@@H]1O[C@H](CO)[C@@H](O)[C@H]1O" and state if its ΔTm is at or above 0.3 °C.
A) no (0)

Q) Please check the record "Cn1cc(C2=C(c3cn(CCCSC(=N)N)c4ccccc34)C(=O)NC2=O)c2ccccc21" and state if its ΔTm is at or above 0.3 °C.
A) yes (1)

Q) Please check the record CN(C)c1ccc(CC2C(=O)Nc3ccccc32)cc1 (configuration not stated) and state if its ΔTm is at or above 0.3 °C.
A) no (0)

Q) Please check the record N#CC(C#N)=Cc1ccc(O)c(O)c1 [TYRPHOSTIN 23] and state if its ΔTm is at or above 0.3 °C.
A) no (0)

Q) Please check the record "OC[C@H]1O[C@@H](n2cnc3cc(Cl)c(Cl)cc32)[C@H](O)[C@@H]1O" and state if its ΔTm is at or above 0.3 °C.
A) no (0)

Q) Please check the record "Oc1cccc(-c2nc(N3CCOCC3)c3oc4ncccc4c3n2)c1" and state if its ΔTm is at or above 0.3 °C.
A) no (0)

Q) Please check the record CCOc1ccc(/C=C2/SC(=O)N(CCN)C2=O)cc1 [HIAZOLIDINEDIONE1] and state if its ΔTm is at or above 0.3 °C.
A) yes (1)

Q) Please check the record "NC(=O)c1ccc(-c2nc(-c3ccc4c(c3)OCCO4)c(-c3ccccn3)[nH]2)cc1" and state if its ΔTm is at or above 0.3 °C.
A) yes (1)

Q) Please check the record O=c1ccc2ccc(O)c(O)c2o1 [DAPHNETIN] and state if its ΔTm is at or above 0.3 °C.
A) no (0)

Q) Please check the record "Nc1nc(Nc2ccc(S(N)(=O)=O)cc2)nn1C(=S)Nc1c(F)cccc1F" and state if its ΔTm is at or above 0.3 °C.
A) yes (1)

Q) Please check the record "COc1cccc(-c2cc(=O)c3ccccc3o2)c1N" and state if its ΔTm is at or above 0.3 °C.
A) no (0)

Q) Please check the record "Cn1cc(C2=C(c3cn(CCCN)c4ccccc34)C(=O)NC2=O)c2ccccc21" and state if its ΔTm is at or above 0.3 °C.
A) yes (1)

Q) Please check the record "CCOc1cc2ncnc(Nc3cccc(Br)c3)c2cc1OCC" and state if its ΔTm is at or above 0.3 °C.
A) yes (1)

Q) Please check the record "CC(C)N(CCO)c1nc(Nc2cccc(Cl)c2)c2ncn(C(C)C)c2n1" and state if its ΔTm is at or above 0.3 °C.
A) no (0)

Q) Please check the record COC(=O)[C@]1(O)C[C@@H]2O[C@@]1(C)n1c3ccccc3c3c4c(c5c6ccccc6n2c5c31)C(=O)NC4 (single isomer, unassigned) and state if its ΔTm is at or above 0.3 °C.
A) yes (1)
